target: human Retinoid X Receptor beta (RXRb), RXRB (gene 6257) (UniProt P28702); assay: ATG_RXRb_TRANS: Attagene TRANS-FACTORIAL HepG2 Assay for human Retinoid X Receptor beta (RXRb) (AID 2283013)
Sequence (P28702 whole entry, looked up): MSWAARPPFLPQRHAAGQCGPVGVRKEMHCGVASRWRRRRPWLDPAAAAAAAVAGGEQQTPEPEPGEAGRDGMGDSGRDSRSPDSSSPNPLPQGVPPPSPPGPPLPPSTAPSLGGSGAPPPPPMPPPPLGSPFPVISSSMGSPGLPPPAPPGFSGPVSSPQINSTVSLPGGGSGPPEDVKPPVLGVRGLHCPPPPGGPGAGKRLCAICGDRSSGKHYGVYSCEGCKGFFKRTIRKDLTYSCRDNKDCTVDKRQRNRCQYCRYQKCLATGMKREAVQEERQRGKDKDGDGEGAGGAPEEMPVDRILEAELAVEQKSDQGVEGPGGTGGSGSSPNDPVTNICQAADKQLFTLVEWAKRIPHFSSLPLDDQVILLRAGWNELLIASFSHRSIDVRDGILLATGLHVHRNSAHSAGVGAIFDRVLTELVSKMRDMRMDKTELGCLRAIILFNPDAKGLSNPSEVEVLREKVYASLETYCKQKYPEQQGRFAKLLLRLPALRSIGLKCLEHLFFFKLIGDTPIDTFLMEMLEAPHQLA
Records with an inconclusive call do not appear. Activity calls are given as the source filed them. Rule for the calls: active = hit-call score of the fitted dose curve at least 0.9, where 1 is the maximum; inconclusive = response in the unintended direction; inactive = score below 0.9.
One label from this list, please: TRUE for active, FALSE for inactive

Answered cases to consult:
- CCCCCCCCCCCO: TRUE
- Cc1occc1C(=O)Nc1ccc(C(=O)N2CCC(F)(F)/C(=C\C(=O)N3CCC(N4CCCCC4)CC3)c3ccccc32)cc1: TRUE
- Cc1cc2c(cc1C(F)(F)F)N(C(=O)Nc1ccc(Oc3cccnc3C)nc1)CC2: FALSE
- CC[C@@H]1C[C@H](N(Cc2cc(C(F)(F)F)cc(C(F)(F)F)c2)C(C)=O)c2cc(C(F)(F)F)ccc2N1C(=O)OC(C)C: FALSE

Request: So what was the verdict on Cc1ccc2oc(CN(Cc3ccccc3)C(=O)Nc3c(F)cc(F)cc3F)c(-c3ccc(Cl)cc3)c2c1 in this test?
Result: FALSE
